system: autotaxin (Homo sapiens, UniProt Q13822)
Construct: purchased Cayman 10803
experimentalProtocol: Autotaxin inhibitor screening assay (choline release from LPC)
Assay type: biochemical
conditionSet: inhibition of autotaxin enzyme activity at 1 μM compound; 100 μM 14:0 LPC; read-out: Inhibition
# maps each entry to its inhibition at 1 µM

// known answers, use as guide
{"columns": ["compound", "system", "inhibition at 1 µM"],
 "data": [
  ["CN(C(=O)OCc1cc(Cl)cc(Cl)c1)C1CCCc2ccc(N3CCN(CC(=O)N4CC(O)C4)CC3)cc21 (stereo not shown) [Compound 38]", "autotaxin (Homo sapiens, UniProt Q13822)", "< 50%"],
  ["O=C(Nc1noc2ccc(C3=CCN(C(=O)CN4C(=O)CSC4=S)CC3)cc12)OCc1cc(C(F)(F)F)cc(C(F)(F)F)c1 [Compound 131]", "autotaxin (Homo sapiens, UniProt Q13822)", "50 to 80%"],
  ["CN(C(=O)OCc1cc(Cl)cc(Cl)c1)C1CCc2ccc(C3=CCN(CC(=O)NS(C)(=O)=O)CC3)cc21 (stereo not shown) [Compound 20]", "autotaxin (Homo sapiens, UniProt Q13822)", "50 to 80%"],
  ["Cc1cc(COC(=O)N(C)C2CCc3ccc(C4=CCN(C(=O)CN5C(=O)CSC5=S)CC4)cc32)cc(C(F)(F)F)c1 (stereo not shown) [Compound 94]", "autotaxin (Homo sapiens, UniProt Q13822)", "> 80%"],
  ["N#Cc1cn(Cc2coc3ccc(C4=CCN(CC(=O)N5CC(O)C5)CC4)cc23)nc1-c1ccc(Cl)cc1 [Compound 82]", "autotaxin (Homo sapiens, UniProt Q13822)", "< 50%"],
  ["CN(C(=O)OCc1cc(Cl)ccc1Cl)C1CCc2ccc(C3=CCN(C(=O)CN4C(=O)CSC4=S)CC3)cc21 (stereo not shown) [Compound 96]", "autotaxin (Homo sapiens, UniProt Q13822)", "> 80%"]
]}

Measured inhibition at 1 µM, CCC1Cc2ccc(C3=CCN(CC(=O)N4CC(O)C4)CC3)cc2C1N(C)c1nc(-c2ccc(Cl)cc2)c(C#N)s1 (stereo not shown) [Compound 60] : < 50%

* * *

# maps each entry to its inhibition at 1 µM
system: autotaxin (Homo sapiens, UniProt Q13822)
Construct: purchased Cayman 10803
experimentalProtocol: Autotaxin inhibitor screening assay (choline release from LPC)
Assay type: biochemical

Measured inhibition at 1 µM, CN(c1nc(-c2ccccc2)cs1)C1CCc2ccc(N3CCN(CC(=O)N4CC(O)C4)CC3)cc21 (stereo not drawn) [Compound 44] : < 50%

Measured inhibition at 1 µM, CN(C(=O)OCc1cc(F)cc(Cl)c1)C1CCc2ccc(C3=CCN(C(=O)CN4C(=O)CSC4=S)CC3)cc21 (stereo not drawn) [Compound 97] : > 80%

Measured inhibition at 1 µM, Cc1cc(Cl)cc(COC(=O)N(C)C2CCc3ccc(C4=CCN(C(=O)CN5C(=O)CSC5=S)CC4)cc32)c1 (stereo not drawn) [Compound 92] : > 80%

Measured inhibition at 1 µM, CN(C(=O)OCc1cc(Cl)cc(Cl)c1)C1CCc2ccc(C3=CCN(CC(=O)N4CCC(=O)CC4)CC3)cc21 (stereo not drawn) [Compound 11] : 50 to 80%

Measured inhibition at 1 µM, CN(c1nc(-c2ccc(Cl)cc2)c(C#N)s1)C1CCCc2ccc(N3CCN(CC(=O)N4CC(O)C4)CC3)cc21 (stereo not drawn) [Compound 51] : < 50%

Measured inhibition at 1 µM, CCC1Oc2ccc(C3=CCN(C(=O)CN4CCOCC4)CC3)cc2C1N(C)C(=O)OCc1cc(Cl)cc(Cl)c1 (stereo not drawn) [Compound 120] : < 50%

Source listed as patent US20200157088A1.
